Reference source: patent US20220133913A1

biological target: T1, human αvβ3 integrin ITGAVB3 (human, UniProt P06756 31-992; P05106 27-718, limits assumed); experiment: phage ELISA, coated ITGAVB3, anti-M13-HRP, 490 nm
T1 construct: Recombinant heterodimer used as immunogen, ELISA coating and SPR ligand; also called A5B3; A5b3
T1 sequence (P06756 31-992 limits assumed, chain 1 of 2): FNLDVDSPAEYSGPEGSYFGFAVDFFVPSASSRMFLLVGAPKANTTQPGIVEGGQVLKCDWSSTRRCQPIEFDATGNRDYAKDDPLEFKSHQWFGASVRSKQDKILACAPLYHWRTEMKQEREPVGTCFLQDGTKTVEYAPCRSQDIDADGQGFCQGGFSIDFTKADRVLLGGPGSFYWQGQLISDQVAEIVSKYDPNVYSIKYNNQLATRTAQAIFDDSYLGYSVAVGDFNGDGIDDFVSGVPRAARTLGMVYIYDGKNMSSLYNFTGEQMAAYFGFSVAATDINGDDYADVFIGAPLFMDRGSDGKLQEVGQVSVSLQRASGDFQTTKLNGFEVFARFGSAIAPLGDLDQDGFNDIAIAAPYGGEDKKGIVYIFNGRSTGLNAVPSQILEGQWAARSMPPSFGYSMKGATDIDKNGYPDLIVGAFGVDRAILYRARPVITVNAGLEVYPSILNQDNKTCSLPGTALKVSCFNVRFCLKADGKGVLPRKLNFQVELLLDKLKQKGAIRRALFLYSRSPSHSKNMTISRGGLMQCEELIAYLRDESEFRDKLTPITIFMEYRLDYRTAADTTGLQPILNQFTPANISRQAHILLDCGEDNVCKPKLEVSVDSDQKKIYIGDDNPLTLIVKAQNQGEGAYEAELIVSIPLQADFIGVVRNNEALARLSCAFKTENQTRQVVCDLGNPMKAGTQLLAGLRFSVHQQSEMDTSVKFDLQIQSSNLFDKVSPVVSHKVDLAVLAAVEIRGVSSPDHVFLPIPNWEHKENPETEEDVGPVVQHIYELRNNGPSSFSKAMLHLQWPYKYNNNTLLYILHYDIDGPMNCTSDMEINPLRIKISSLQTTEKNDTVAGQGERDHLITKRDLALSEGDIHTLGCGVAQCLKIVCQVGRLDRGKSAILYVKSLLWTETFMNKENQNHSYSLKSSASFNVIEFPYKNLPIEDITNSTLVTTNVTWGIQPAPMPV
T1 sequence (P05106 27-718 limits assumed, chain 2 of 2): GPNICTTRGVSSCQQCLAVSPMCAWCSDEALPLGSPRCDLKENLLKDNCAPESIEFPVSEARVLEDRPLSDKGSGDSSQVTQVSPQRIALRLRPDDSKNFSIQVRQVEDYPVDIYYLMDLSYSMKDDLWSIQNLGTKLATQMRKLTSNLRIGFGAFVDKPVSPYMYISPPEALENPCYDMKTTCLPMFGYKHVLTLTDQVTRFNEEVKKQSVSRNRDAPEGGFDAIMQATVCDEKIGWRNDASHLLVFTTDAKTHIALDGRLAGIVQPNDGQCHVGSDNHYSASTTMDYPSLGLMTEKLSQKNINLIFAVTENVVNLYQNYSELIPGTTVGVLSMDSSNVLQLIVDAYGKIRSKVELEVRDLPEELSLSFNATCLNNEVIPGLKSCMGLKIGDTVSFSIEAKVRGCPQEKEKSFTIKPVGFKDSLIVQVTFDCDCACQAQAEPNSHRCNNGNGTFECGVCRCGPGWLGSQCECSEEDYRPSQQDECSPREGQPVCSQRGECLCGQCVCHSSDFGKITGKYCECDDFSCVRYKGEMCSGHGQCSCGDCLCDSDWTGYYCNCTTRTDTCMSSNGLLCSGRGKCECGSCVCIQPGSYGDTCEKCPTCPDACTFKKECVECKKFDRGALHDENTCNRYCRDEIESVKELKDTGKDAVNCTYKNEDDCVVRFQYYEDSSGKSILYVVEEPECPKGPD
OD490 values by entry
// print number alone

binder | OD490
clone 8 (VHH) VHH: DVQLVESGGGSVQPGGSLRLSCAASGYTVENSCMAWFRQAPGKEREVVATIVTNNATGTFYADSVKGRFTVSQDNAKNTLNLQMNSLEPEDTAMYYCAADTKWIVCSRGYRYTPNWANQFKYWGQGTQVTVSS | 1.95
clone 2 (VHH) VHH: EVQLVESGGGSVQPGESLRLSCVASGYTVSSSCMAWFRQAPGKEREVVATIVVTSDTTSTFYADSVKGRFTISPDNAKNTLNLQMNSLEPPDTAMYYCAADRKWNVCSRGYRYTPNWANQFTFWGQGTQVTVSS | 2.02
clone 4 (VHH) VHH: EVQLVESGGGSVQPGESLRLSCVASGYTVSSSCMAWFRQAPGKEREVVATIVVTSDTTSTFYADSVKGRFTISPDNAKNTLNLQMNSLEPPDTAMYYCAADRKWNVCSRGYRYTPNWANQFTFWGQGTQVTVSS | 2.16
clone 32 (VHH) VHH: EVQLVESGGGSVQPGESLRLSCVASGYTVSSSCMAWFRQAPGKEREVVATIVVTSDTTSTFYADSVKGRFTISPDNAKNTLNLQMNSLEPSDTAMYYCAADRKWNVCSRGYRYTPNWANQFTFWGQGTQVTVSS | 1.88
VHH-11 (VHH, also called clone 11) VHH: DVQLVESGGGSVQPGESLRLSCVASGYTVSSSCMAWFRQAPGKEREVVATIVVTSDTTSTFYADSVKGRFTISPDNAKNTLNLQMNSLEPSDTAMYYCAADRKWNVCSRGYRYTPNWANQFTFWGQGTLVTVSS | 2.07
clone 21 (VHH) VHH: HVQLVESGGGSVQPGESLRLSCVASGYTVSSSCMAWFRQAPGKEREVVATIVVTSDTTSTFYADSVKGRFTISPDNAKNTLNLQMNSLEPSDTAMYYCAADRKWNVCSRGYRYTPNWANQFTFWGQGTQVTVSS | 1.95

For this binder ( VHH-16 (VHH, also called clone 16) VHH: DVQLVESGGGSVQPGGSLRLSCAASGYTVENSCMAWFRQAPGKEREVVATIVTNNATGTFYADSVKGRFTVSQDNAKNTLNLQMNSLEPEDTAMYYCAADTKWIVCSRGYRYTPNWANQFKYWGQGTQVTVSS ), measured OD490 is 2.07

For this binder ( clone 38 (VHH) VHH: DVQLVESGGGSVQPGGSLRLSCAASGYTVDNSCMAWFRQAPGKEREVVATIVTNNATSTFYADSVKGRFTVSHDNAKNTLNLQMNTLEPEDTAMYYCAADTKWIVCSRGYRYTPNWANHFNYWGQGTLVTVSS ), measured OD490 is 2.12

For this binder ( clone 36 (VHH) VHH: DVQLVESGGGSVQPGGSLRLSCAASGYTVENSCMAWFRQAPGKEREVVATIVTNNATGTFYADSVKGRFTVSQDNAKNTLNLQMNSLEPEDTAMYYCAADTKWIVCSRGYRYTPNWANQFKYWGQGTQVTVSS ), measured OD490 is 1.98
